assay.target: 5-LOX enzyme
test.summary: 5-Lipoxygenase (5-LOX) inhibitory assay (colorimetric LOX inhibitor screening kit)
condition.set: isolated compounds
Each record here notes measured IC50.
# unit: µM | format: bare number

Req: Entry under review: COC(=O)C1=COC(OC2OC(CO)C(O)C(O)C2O)C2C1(O)CC(O)C2(C)O (centres unmarked) [Compound 2, lamiide] . Reported IC50?
Resp: 4.9

Req: Entry under review: COC(=O)C1=COC(OC2OC(CO)C(O)C(O)C2O)C2C1(O)CC(OC(=O)C=Cc1ccc(OC)c(O)c1)C2(C)O (centres unmarked) [Compound 1, duranterectoside A] . Reported IC50?
Resp: 2.6

###

assay.target: ovine COX-1 (Ovis aries)
Sequence (P05979 25-600): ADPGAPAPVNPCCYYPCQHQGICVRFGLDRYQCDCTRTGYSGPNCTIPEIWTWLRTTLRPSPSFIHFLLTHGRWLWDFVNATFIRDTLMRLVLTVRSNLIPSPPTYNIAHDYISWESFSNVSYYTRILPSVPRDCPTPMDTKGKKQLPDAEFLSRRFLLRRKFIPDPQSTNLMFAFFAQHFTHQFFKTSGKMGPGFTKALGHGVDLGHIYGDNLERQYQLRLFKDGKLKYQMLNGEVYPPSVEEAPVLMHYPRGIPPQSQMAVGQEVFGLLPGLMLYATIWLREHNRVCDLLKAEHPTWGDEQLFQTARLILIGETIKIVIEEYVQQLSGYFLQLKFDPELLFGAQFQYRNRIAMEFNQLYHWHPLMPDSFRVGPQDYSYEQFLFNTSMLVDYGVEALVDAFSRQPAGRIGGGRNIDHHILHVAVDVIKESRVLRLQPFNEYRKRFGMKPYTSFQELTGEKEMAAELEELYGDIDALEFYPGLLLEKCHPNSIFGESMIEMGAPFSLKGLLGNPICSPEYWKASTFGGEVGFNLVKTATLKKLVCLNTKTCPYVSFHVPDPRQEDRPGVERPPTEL
Each record here notes measured IC50.
# unit: µM | format: bare number

Req: Entry under review: COC(=O)C1=COC(OC2OC(CO)C(O)C(O)C2O)C2C1(O)CC(O)C2(C)O (centres unmarked) [Compound 2, lamiide] . Reported IC50?
Resp: 8.5

Req: Entry under review: COC(=O)C1=COC(OC2OC(CO)C(O)C(O)C2O)C2C1(O)CC(OC(=O)C=Cc1ccc(OC)c(O)c1)C2(C)O (centres unmarked) [Compound 1, duranterectoside A] . Reported IC50?
Resp: 7.3
